Data origin, for the record: ChEMBL document CHEMBL1201862

Tested on: HOP-92
Assay: NCI tumour cell line growth inhibition, 48 h
The source made the active and inactive calls. Rule as the data show it: active = GI50 up to about 1.1 µM and inactive = higher.

molecule | target | GI50
O=C(O)c1cccc(S(=O)(=O)NCCO)c1 | HOP-92 | > 100 µM (inactive)
CC(=O)Oc1ccc2cc(-c3ccc(OC(C)=O)c(OC(C)=O)c3)c(=O)oc2c1 | HOP-92 | 43.4 µM (inactive)
CC(=O)C(C(c1ccccc1)N1CCOCC1)N1CCOCC1 (stereo unspecified) | HOP-92 | > 100 µM (inactive)
C/C(=N\NC(N)=S)c1sc(-n2nc(-c3ccccc3)cc2-c2ccccc2)nc1C | HOP-92 | > 100 µM (inactive)
CNC(=O)c1cc2nc3ccccc3c(=O)n2c2ccccc12 | HOP-92 | > 10 µM (inactive)
C[C@@H](CC(O)C(O)C(C)(C)O)C1CCC23CC12CCC1[C@@]2(C)CCC(=O)C(C)(C)C2CC(OC2OC(CO)C(O)C(O)C2O)[C@]13C (stereo partly specified) | HOP-92 | > 10 µM (inactive)
CC(C)=CCN1CC(C)C(=O)Nc2cc(Cl)ccc21 (stereo unspecified) | HOP-92 | 10.8 µM (inactive)
O=C1C2[C@@H](C(=O)N1c1ccc(Br)cc1)C13C(=CC2([N+](=O)[O-])[C@@H]2C(=O)N(c4ccc(Br)cc4)C(=O)[C@@H]21)c1ccccc1N3c1ccccc1 (stereo partly specified) | HOP-92 | > 100 µM (inactive)
O=C(O)CCCNS(=O)(=O)c1ccccc1 | HOP-92 | > 100 µM (inactive)
CC(C)(/N=N/C(C)(C)C1=NCCN1)C1=NCCN1 | HOP-92 | > 100 µM (inactive)
CCOC(=O)c1cn2c(n1)sc1cc(OC)ccc12 | HOP-92 | > 100 µM (inactive)
CCCCCCCCCC(=O)OCC1OC(n2cc(F)c(=O)[nH]c2=O)C(N)C(OC(=O)CCCCCCCCC)C1O (stereo unspecified) | HOP-92 | 20.6 µM (inactive)
O=c1[nH]c(Nc2nc3ccccc3[nH]2)nc(O)c1-c1ccccc1 | HOP-92 | > 100 µM (inactive)
O=C(c1ccccc1)C(Nc1ccc2ccccc2c1)c1ccccc1 (stereo unspecified) | HOP-92 | 41.7 µM (inactive)
Nc1ncc(Cl)c(NCC2(CO)CC(CCc3ccccc3)C2)n1 (stereo unspecified) | HOP-92 | 5.69 µM (inactive)
COc1ccc(OC)c2c1C[C@@H]1C(C#N)N3[C@H](Cc4c(OC)ccc(OC)c4[C@@H]3C)C(=O)N1[C@H]2C (stereo partly specified) | HOP-92 | 2.06 µM (inactive)
CCN(CC)CCCNc1ccc2nnn3c4ccc(O)cc4c(=O)c1c23 | HOP-92 | 14.6 µM (inactive)
CN1N=C2c3ccccc3CC[C@H]2C1c1cccc(O)c1 (stereo partly specified) | HOP-92 | > 100 µM (inactive)
O=c1[nH]c(=O)n(COCCO)cc1-c1ccccc1 | HOP-92 | > 100 µM (inactive)
Cc1nc2c(c(=O)[nH]1)S/C(=C(/C#N)c1nc3ccccc3[nH]1)N2c1ccccc1 | HOP-92 | > 100 µM (inactive)
CC1(C(=O)O)CCC(C(=O)O)C(C)(C)O1 (stereo unspecified) | HOP-92 | > 100 µM (inactive)

* * *

Tested on: Hs-578T
Experiment: NCI tumour cell line growth inhibition, 48 h
Activity calls are given as the source filed them. Rule as the data show it: active = GI50 up to about 1.1 µM and inactive = higher.

compound | target | GI50
O=C(CN1CCCCC1)c1ccc2[nH]c(=O)oc2c1 | Hs-578T | > 100 µM (inactive)
O=C(O)c1nn(-c2ccc(Cl)cc2)c2c1C(=O)c1ccccc1C2=O | Hs-578T | > 100 µM (inactive)
CC(C)(C)NC(NC(C)(C)C)=C(/C=C(/Cl)[N+](=O)[O-])[N+](=O)[O-] | Hs-578T | 56.9 µM (inactive)
CCCC(=O)Nc1cc([N+](=O)[O-])c([N+](=O)[O-])cc1OC | Hs-578T | 14.4 µM (inactive)
O=C(O)C1C2c3ccccc3C(c3ccccc32)C1C(=O)NCC1CC1 (stereo unspecified) | Hs-578T | 63.5 µM (inactive)
CCn1c(-c2c(Cl)cc(O)cc2Cl)cc2c(Cl)cc(O)cc21 | Hs-578T | 5.07 µM (inactive)
O=c1ccc2nc3ccc(O)cc3oc-2c1 | Hs-578T | 6.92 µM (inactive)
NC(=O)NC1NC(=O)NC1=O (stereo unspecified) | Hs-578T | > 100 µM (inactive)
O=C1C=C(c2ccccc2)O/C1=C\C(=O)c1ccc(Cl)cc1 | Hs-578T | 21.9 µM (inactive)
CCOC(=O)N1[C@@H]2CCC[C@@H]2C(=O)[C@@H]2CCC[C@@H]21 | Hs-578T | > 100 µM (inactive)
Fc1c(F)c(C(F)(F)F)c(F)c(F)c1N/N=C/c1cn(Cc2ccccc2)c2ccccc12 | Hs-578T | 41.7 µM (inactive)
